- System: NCI/ADR-RES ovarian
- METHOD NOTES: NCI tumour cell line growth inhibition, 48 h
PARAMETER: TGI

• CCCO[C@@H]1[C@@H](OC(C)=O)[C@@H](OC(C)=O)C(C)(C)/C=C/[C@H](C)C(=O)[C@@]2(OC(C)=O)C[C@@](C)(OC(C)=O)[C@H](OC(C)=O)[C@@H]2[C@H]2OC(=O)CC[C@@]12OC(=O)c1ccccc1 = > 25 µM
• c1ccc2c(c1)c1ccccc1c1ccccc21 = > 100 µM
• COCn1cnc2c(=O)nc(SC)n(-c3ccccc3)c21 = > 100 µM
• CC1=NC(C)(COC(=O)C2(C)NC(C)(CO)CO2)COC1=O (stereo unspecified) = > 100 µM
• COc1ccc(-c2cc(-c3ccc(Nc4ccnc5cc(Cl)ccc45)cc3)nc(N3CCOCC3)n2)cc1 = > 100 µM
• CCCCCCc1cc2cc(C(=O)Nc3ccc(F)cc3)c(=N)oc2cc1O = 8.94 µM
• Oc1c(Br)ccc2cccnc12 = 6.38 µM
• COc1cc(/C=C/C(=O)Oc2ccccc2)ccc1C(=O)O/C=C/c1ccccc1 = > 100 µM
• COc1ccc2nc(-c3ccccc3)c(=O)[nH]c2c1 = > 100 µM
• COc1ccc(/C=C/c2cnccn2)cc1OC = > 10 µM
• CS(=O)(=O)CS(=O)(=O)OCCCl = 1960 µM

These data points were gathered from PubChem BioAssay (NCI).
